Assay: Pharmacokinetics after oral administration
Assay type: in vivo, rat
Details: rat, plasma, po, 100 mg/kg, rats, equivalent to 100 mg/kg NRG, unchanged NRG in plasma, read-out: AUC0–1 h
readout name: AUC(0-t) (ng·h/mL)
Only the number, expressed in ng·h/mL, is required.

Q) Supply AUC(0-t) value. Item: O=C1C[C@@H](c2ccc(O)cc2)Oc2cc(O)cc(O)c21
A) 30

====

Assay: Pharmacokinetics after oral administration
Type: in vivo, rat
Conditions: rat, plasma, po, 100 mg/kg, rats, equivalent to 100 mg/kg NRG, unchanged NRG, read-out: F, absolute bioavailability
readout name: bioavailability

Q) Supply bioavailability value. Item: O=C1C[C@@H](c2ccc(O)cc2)Oc2cc(O)cc(O)c21
A) ~0.5%
